# System: anesthetized guinea-pig
# run.description: Inotropic effect and lethal dose, slow intravenous infusion in anesthetized guinea-pig
# Type: in vivo
# Parameters: unit not given here
# condition.description: slow i.v. infusion over 90 minutes; maximum dose infused in the survived animals
Where a name gives a salt, the structure may show the parent alone.
Given measured Maximum dose infused, output Criterion met if it is greater than or equal to 6 and Criterion not met if not.

# molecule, label.value
data = [
    ("C[C@]12CC[C@H]3[C@@H](CC[C@@]4(O)CC(=NO[C@@H]5CCNC5)CC[C@]34C)[C@@H]1CCC2=O (mixture of isomers)", "Criterion met"),
]

Given the entry CC12CCC3C(CC(CCO)C4CC(=NOC5CCNC5)CCC43C)C1CCC2=O (mixture of isomers) [I-bc, hydrochloride] , answer whether its Maximum dose infused meets or surpasses 6.
Criterion met

Reported Maximum dose infused at or above 6? C#CC1CC2C3CCC(=O)C3(C)CCC2C2(C)CCC(=NOC3CCNC3)CC12 (mixture of isomers) [I-bb, hydrochloride]
Criterion met

Does the molecule C[C@H]1O[C@@H](O[C@H]2[C@@H](O)C[C@H](O[C@H]3[C@@H](O)C[C@H](O[C@H]4CC[C@@]5(C)[C@H](CC[C@@H]6[C@@H]5C[C@@H](O)[C@]5(C)[C@@H](C7=CC(=O)OC7)CC[C@]65O)C4)O[C@@H]3C)O[C@@H]2C)C[C@H](O)[C@@H]1O [digoxin, reference compound] have recorded Maximum dose infused that is 6 or more?
Criterion not met

Does Maximum dose infused meet or surpass 6 for COC(=O)C1CC2C3CCC(=O)C3(C)CCC2C2(C)CCC(=NOC3CCNC3)CC12 (mixture of isomers) [I-au, hydrochloride] ?
Criterion met

State whether the measured Maximum dose infused reaches 6, counting equality as reaching it, for C[C@]12CC[C@H]3[C@@H](C/C(=N\O)[C@@]4(O)CC(=NO[C@H]5CCNC5)CC[C@]34C)[C@@H]1CCC2=O (mixture of isomers) [I-bq, hydrochloride]
Criterion met

Check this molecule for Maximum dose infused at or above 6: C=C1C[C@H]2[C@@H]3CCC(=O)[C@@]3(C)CC[C@@H]2[C@@]2(C)CCC(=NO[C@@H]3CCNC3)C[C@]12O (mixture of isomers) [I-bh, hydrochloride]
Criterion met

Evaluate C[C@]12CCC(=NOCCN)CC1C(=O)C[C@@H]1[C@@H]2CC[C@]2(C)C(=O)CC[C@@H]12.Cl (mixture of isomers) [compd 22b, reference compound] : Maximum dose infused at minimum 6?
Criterion met

Dear colleague, could you confirm whether C[C@]12CC[C@H]3[C@@H](C/C(=N\O)[C@@]4(O)CC(=NO[C@@H]5CCNC5)CC[C@]34C)[C@@H]1CCC2=O (mixture of isomers) [I-bp, hydrochloride] has Maximum dose infused at or above 6?
Criterion not met

Is Maximum dose infused at least 6? Consider CC12CCC3C(CC(=C(F)F)C4CC(=NOC5CCNC5)CCC43C)C1CCC2=O (mixture of isomers) [I-az, hydrochloride]
Criterion met

Maximum dose infused >= 6 for CC12CCC3C(CC(=NO)C4CC(=NOC5CCNC5)CCC43C)C1CCC2=O (mixture of isomers) [I-av, hydrochloride] ?
Criterion met
